All figures here come from ChEMBL document CHEMBL1201862.

Measured GI50 accompanies every entry in the list below.
tested on: Malme-3M; experiment: NCI tumour cell line growth inhibition, 48 h
The source made the active and inactive calls. No stated cut-off is given here; in the data, active = GI50 up to about 1.1 µM and inactive = higher.

// below: answered compounds
COC(=O)C(C#N)C1NC(=O)c2ccccc21 (stereo not drawn): > 100 µM (inactive)
CN(C(=O)c1cccs1)C(=S)N1CCN(c2ccccc2)CC1: > 100 µM (inactive)

Kindly review the next compound as well.
Inquiry: Endpoint output: GI50 of CC(=O)O[C@H]1C(=O)[C@@]2(C)C(C(OC(=O)c3ccccc3)[C@]3(O)CC(OC(=O)[C@H](OC(=O)CCC(=O)O)C(NC(=O)c4ccccc4)c4ccccc4)C(C)=C1C3(C)C)C1(OC(C)=O)COC1C[C@@H]2OC(=O)CCC(=O)O (stereo partly drawn) . Value?
Reply text: 11.6 µM (inactive)

###

Measured GI50 accompanies every entry in the list below.
tested on: EKVX; experiment: NCI tumour cell line growth inhibition, 48 h
The source made the active and inactive calls. No stated cut-off is given here; in the data, active = GI50 up to about 1.1 µM and inactive = higher.

CCOC(=O)C1CC(C(=O)c2ccccc2)N2c3ccccc3-c3ccccc3C12 (centres undefined): > 100 µM (inactive)
CC(NC1=CC(=O)c2cccnc2C1=O)C(O)c1ccccc1 (centres undefined): 6.04 µM (inactive)
NCCCn1c2ccccc2c2c3c(c4c(c21)CCC(O)CC4)C(=O)NC3=O (centres undefined): 9.18 µM (inactive)
Nn1nnc2ccccc21: > 100 µM (inactive)

Inquiry: Endpoint output: GI50 of CN(C)CCNC(=O)Cn1ccc(=O)c2c([N+](=O)[O-])cccc21 . Value?
Reply text: > 100 µM (inactive)

Inquiry: Endpoint output: GI50 of COC(=O)c1c(O)ccc(O)c1C(C(C)=O)C(C)=O . Value?
Reply text: > 100 µM (inactive)

Inquiry: Endpoint output: GI50 of CC(O)c1c2c(cc3c1CC1(C3)Cc3cc4c(c(C(C)O)c3C1)CCC4)CCC2 (centres undefined) . Value?
Reply text: 27.9 µM (inactive)

Inquiry: Endpoint output: GI50 of O=C(Nc1cc2c(=O)oc3ccccc3c2oc1=O)c1cccnc1 . Value?
Reply text: > 100 µM (inactive)

Inquiry: Endpoint output: GI50 of C=C(C)CCC1CC=[N+]([O-])OC1C(C)(C)C (centres undefined) . Value?
Reply text: 68.2 µM (inactive)

Inquiry: Endpoint output: GI50 of N#CN1CC[C@@H]2CC3(CCC2C1)OCCO3 (some centres undefined) . Value?
Reply text: > 100 µM (inactive)

Inquiry: Endpoint output: GI50 of COc1ccc2c3c(ccc2c1)NC(C(=O)O)CC3 (centres undefined) . Value?
Reply text: 67.8 µM (inactive)

Inquiry: Endpoint output: GI50 of O=C(/C=C/NC(=O)OCc1ccccc1)OCc1ccccc1 . Value?
Reply text: > 100 µM (inactive)

Inquiry: Endpoint output: GI50 of Cc1cccc(-c2cc(=O)c3cc(C)c(C)c(C(=O)O)c3o2)c1 . Value?
Reply text: > 100 µM (inactive)

###

system: HT-29; test: NCI tumour cell line growth inhibition, 48 h
Calls of active or inactive are those of the source. Rule as the data show it: active = GI50 up to about 1.1 µM and inactive = higher.
Choose the fitting class; nothing outside active, inactive is accepted.

Inquiry: Test call for this molecule, please: O=C1CCCN1C(=O)CS(=O)(=O)c1ccccc1
Reply text: inactive

Inquiry: Test call for this molecule, please: O=[N+]([O-])c1ccc(C2=Nn3cnnc3SC2)o1
Reply text: inactive

Inquiry: Test call for this molecule, please: CC(CO)(CBr)COC(=O)c1cc(Br)c(N)c(Br)c1 (stereo not drawn)
Reply text: inactive

Inquiry: Test call for this molecule, please: O=C1NC(=O)c2c1n(Cc1ccccc1)c(=O)n2Cc1ccccc1
Reply text: inactive

###

system: SK-OV-3; test: NCI tumour cell line growth inhibition, 48 h
Active and inactive are the calls of the source. Cut-off read from the data, not from the text of the source: active = GI50 up to about 1.1 µM and inactive = higher.
Choose the fitting class; nothing outside Y = active, N = inactive is accepted.

Inquiry: Test call for this compound, please: O=C(Nc1c(Cl)cccc1Cl)c1c(Cl)c(Cl)c(Cl)c(Cl)c1-c1nc2ccccc2[nH]1
Reply text: Y

Inquiry: Test call for this compound, please: O=C1CCCN1C(=O)CS(=O)(=O)c1ccccc1
Reply text: N

Inquiry: Test call for this compound, please: Cc1nc(N)nc(N)c1CCCCc1ccccc1
Reply text: N

Inquiry: Test call for this compound, please: O=C(/C=C/NC(=O)OCc1ccccc1)OCc1ccccc1
Reply text: N

Inquiry: Test call for this compound, please: O=C(Nc1ccc([N+](=O)[O-])cc1[N+](=O)[O-])C(=O)C(C(=O)c1ccc(Cl)c(Cl)c1)C1OC(=O)c2ccccc21 (stereo unspecified)
Reply text: N

Inquiry: Test call for this compound, please: O=C(Nc1ccc(C(F)(F)F)cc1[N+](=O)[O-])C(=O)Nn1c(S)nc2ccccc2c1=O
Reply text: N

###

test system: HCT-116; test: NCI tumour cell line growth inhibition, 48 h
The source made the active and inactive calls. Cut-off read from the data, not from the text of the source: active = GI50 up to about 1.1 µM and inactive = higher.
Experimental readout: GI50

// below: answered compounds
O=C(Nc1c(Cl)cccc1Cl)c1c(Cl)c(Cl)c(Cl)c(Cl)c1-c1nc2ccccc2[nH]1: 43.5 µM (inactive)
Cc1cccc(/N=N/c2ccc(O)c(CN(C)C)c2)c1: 20.5 µM (inactive)
C=C(C)CCC1CC=[N+]([O-])OC1C(C)(C)C (stereo unspecified): 21.8 µM (inactive)
O=[N+]([O-])c1ccc(C2=Nn3c(nnc3-c3ccccc3)SC2)o1: 17.6 µM (inactive)
CC1=CC(O)C(C(O)(C(F)(F)F)C(F)(F)F)C(C)(C)C1 (stereo unspecified): > 10 µM (inactive)

Kindly review the next compound as well.
Inquiry: Endpoint output: GI50 of CCO/N=[N+](\[O-])N(CC)CC . Value?
Reply text: > 100 µM (inactive)

###

Measured GI50 accompanies every entry in the list below.
test system: SW-620; test: NCI tumour cell line growth inhibition, 48 h
Activity calls are given as the source filed them. Cut-off read from the data, not from the text of the source: active = GI50 up to about 1.1 µM and inactive = higher. Residues, ends and D or L forms follow the SMILES beside them. *: point of attachment. Boc = CC(C)(C)OC(=O)*

// below: answered compounds
Cc1cn(C2CC(Br)C(COC(c3ccccc3)(c3ccccc3)c3ccccc3)O2)c(=O)[nH]c1=O (centres undefined): 14.3 µM (inactive)
COC(=O)C(Cc1c[nH]c2ccccc12)NC(=O)C(Cc1c[nH]c2ccccc12)NC(=O)C(Cc1c[nH]c2ccccc12)NC(=O)C(Cc1c[nH]c2ccccc12)NC(=O)OC(C)(C)C (centres undefined) (Boc-WWWW-OMe; configuration not given here): 6.07 µM (inactive)
O=C1CCCN1C(=O)CS(=O)(=O)c1ccccc1: > 100 µM (inactive)

Inquiry: Endpoint output: GI50 of C=CCC(C)C12CCNC(Cc3ccc(O)cc31)C2C (centres undefined) . Value?
Reply text: > 100 µM (inactive)

###

system: SF-539; experiment: NCI tumour cell line growth inhibition, 48 h
Active and inactive are the calls of the source. No stated cut-off is given here; in the data, active = GI50 up to about 1.1 µM and inactive = higher.
Choose the fitting class; nothing outside YES for active, NO for inactive is accepted.

Solved cases below.
Cc1c(N)nc(C(CC(N)=O)NCC(N)C(N)=O)nc1C(=O)NC(C(=O)NC(C)C(O)C(C)C(=O)NC(C(=O)NCCc1nc(-c2nc(C(=O)NCCCNCCCCN)cs2)cs1)C(C)O)C(OC1OC(CO)C(O)C(O)C1OC1OC(CO)C(O)C(OC(N)=O)C1O)c1c[nH]cn1 (centres undefined): YES
CCCC/C(C)=N/NC(N)=S: NO
CC1=CC(O)C(C(O)(C(F)(F)F)C(F)(F)F)C(C)(C)C1 (centres undefined): NO

Okay, now this molecule:
Inquiry: Test call for this molecule, please: S=P(C1CCCCC1)(C1CCCCC1)C(c1cccnc1)N1CCCC1 (centres undefined)
Reply text: NO

###

Measured GI50 accompanies every entry in the list below.
tested on: OVCAR-4; assay: NCI tumour cell line growth inhibition, 48 h
Activity calls are given as the source filed them. Rule as the data show it: active = GI50 up to about 1.1 µM and inactive = higher.

Cc1c(N)nc(C(CC(N)=O)NCC(N)C(N)=O)nc1C(=O)NC(C(=O)NC(C)C(O)C(C)C(=O)NC(C(=O)NCCc1nc(-c2nc(C(=O)NCCCNCCCCN)cs2)cs1)C(C)O)C(OC1OC(CO)C(O)C(O)C1OC1OC(CO)C(O)C(OC(N)=O)C1O)c1c[nH]cn1 (stereo not drawn): > 6.46 µM (inactive)
COc1ccc(/C(=N/O)C(c2ccc(OC)cc2)C2C(=O)Oc3ccccc32)cc1 (stereo not drawn): 48.6 µM (inactive)

Kindly review the next compound as well.
Inquiry: Endpoint output: GI50 of O=C(Nc1ccc(Cl)cc1)c1cc2c(cc1Cl)SC(NNCCO)=NS2(=O)=O . Value?
Reply text: > 100 µM (inactive)

###

Measured GI50 accompanies every entry in the list below.
tested on: SNB-78; assay: NCI tumour cell line growth inhibition, 48 h
Active and inactive are the calls of the source. Rule as the data show it: active = GI50 up to about 1.1 µM and inactive = higher.

// below: answered molecules
COC(=O)/C(=N/NC(C)(C)C)C(C(=O)OC)C(=O)C(=O)Nc1nc2ccc([N+](=O)[O-])cc2s1 (centres undefined): > 100 µM (inactive)
O=C1NC(=O)c2c1n(Cc1ccccc1)c(=O)n2Cc1ccccc1: > 100 µM (inactive)
COc1ccc([N+]2=NC(c3ccc([N+](=O)[O-])cc3)=NN(c3ccccc3)C2)cc1: > 100 µM (inactive)
O=C(O)[C@H](NS(=O)(=O)c1ccc(F)cc1)c1ccccc1: > 100 µM (inactive)
N#CC(c1nc2ccccc2nc1Cl)S(=O)(=O)c1ccccc1 (centres undefined): 25.8 µM (inactive)
O=C(c1ccccc1)C1OC12C(=O)Nc1c(Cl)cc(Cl)cc12 (centres undefined): > 50.5 µM (inactive)
Cc1[nH]c2ccccc2c1C(=O)CC1(O)C(=O)Nc2c(Cl)cc(Cl)cc21 (centres undefined): 40.7 µM (inactive)
CCOC(=O)c1[nH]c(CN(C)Cc2[nH]c(C(=O)OCC)c(C)c2C(=O)OCc2ccccc2)c(C(=O)OCc2ccccc2)c1C: > 100 µM (inactive)

Inquiry: Endpoint output: GI50 of O=C(CC(=O)c1ccc([N+](=O)[O-])cc1)C(=O)Nc1nccs1 . Value?
Reply text: > 100 µM (inactive)
